# Lookup of reported CC50 keyed by entry
- System: PANC-1
- Assay Comment: SRB colorimetric assay of cell growth and viability, PANC-1
- Format: cell-based, human
- Condition Label: PANC-1; 48 hours exposure; read-out: LC50 PANC-1
Where a SMILES comes first, the peptide text is derived from it. Bridges are numbered along the chain shown (N, C = ends). [ ]: non-standard residue; d: D form. The star is where a group is joined. d(aIle) = CC[C@H](C)[C@@H](N)C(=O)O; d(aThr) = C[C@@H](O)[C@@H](N)C(=O)O; Hexanoyl(5-Me) = CC(C)CCCC(=O)*; Orn = NCCC[C@H](N)C(=O)O; Dhb = C/C=C(\N)C(=O)O

Molecule	Experimental System	Endpoint Unit	CC50
C/C=C1\NC(=O)[C@H](Cc2ccccc2)NC(=O)[C@@H](C(C)C)NC(=O)[C@@H]([C@@H](C)CC)NC(=O)[C@H](NC(=O)[C@H](NC(=O)[C@H](CCCN)NC(=O)[C@H]2CCCN2C(=O)[C@H](NC(=O)[C@@H](NC(=O)[C@H](C)NC(=O)[C@H](NC(=O)CCCC(C)C)C(C)C)C(C)C)C(C)C)[C@@H](C)CC)[C@@H](C)OC(=O)[C@H](C(C)C)NC1=O [Compound 112, [Ala^12]-KF] ({Hexanoyl(5-Me)}-[dV]AV[dV][dP][Orn][d(aIle)][d(aThr)][d(aIle)][dV]F[Dhb]V; ester 8-C)	PANC-1	µM	6.91
C/C=C1\NC(=O)[C@H](Cc2ccccc2)NC(=O)[C@@H](C(C)C)NC(=O)[C@@H]([C@@H](C)CC)NC(=O)[C@H](NC(=O)[C@H](NC(=O)[C@H](CCCNC(=O)CCCC[C@@H]2SC[C@@H]3NC(=O)N[C@@H]32)NC(=O)[C@H]2CCCN2C(=O)[C@H](NC(=O)[C@@H](NC(=O)[C@@H](NC(=O)[C@H](NC(=O)CCCC(C)C)C(C)C)[C@@H](C)O)C(C)C)C(C)C)[C@@H](C)CC)[C@@H](C)OC(=O)[C@H](C(C)C)NC1=O [Compound 99, [Orn(Biot)^8]-Kahalalide F]	PANC-1	µM	5.87
C/C=C1\NC(=O)[C@H](Cc2ccccc2)NC(=O)[C@@H](C(C)C)NC(=O)[C@@H]([C@@H](C)CC)NC(=O)[C@H](NC(=O)[C@H](NC(=O)[C@H](CCCN)NC(=O)[C@H]2CCCN2C(=O)[C@H](NC(=O)[C@@H](NC(=O)[C@H](CC(C)C)NC(=O)[C@H](NC(=O)CCCC(C)C)C(C)C)C(C)C)C(C)C)[C@@H](C)CC)[C@@H](C)OC(=O)[C@H](C(C)C)NC1=O [Compound 113, [Leu^12]-KF] ({Hexanoyl(5-Me)}-[dV]LV[dV][dP][Orn][d(aIle)][d(aThr)][d(aIle)][dV]F[Dhb]V; ester 8-C)	PANC-1	µM	6.71
C/C=C1\NC(=O)[C@H](Cc2ccccc2)NC(=O)[C@@H](C(C)C)NC(=O)[C@@H]([C@@H](C)CC)NC(=O)[C@H](NC(=O)[C@H](NC(=O)[C@H](CCCN)NC(=O)[C@H]2CCCN2C(=O)[C@H](NC(=O)[C@@H](NC(=O)[C@H](CCC(=O)O)NC(=O)[C@H](NC(=O)CCCC(C)C)C(C)C)C(C)C)C(C)C)[C@@H](C)CC)[C@@H](C)OC(=O)[C@H](C(C)C)NC1=O [Compound 115, [Glu^12]-KF] ({Hexanoyl(5-Me)}-[dV]EV[dV][dP][Orn][d(aIle)][d(aThr)][d(aIle)][dV]F[Dhb]V; ester 8-C)	PANC-1	µM	6.64
C/C=C1\NC(=O)[C@H](Cc2ccccc2)NC(=O)[C@@H](C(C)C)NC(=O)[C@@H]([C@@H](C)CC)NC(=O)[C@H](NC(=O)[C@H](NC(=O)[C@H](CCCN)NC(=O)[C@H]2CCCN2C(=O)[C@H](NC(=O)[C@@H](NC(=O)[C@H](Cc2ccccc2)NC(=O)[C@H](NC(=O)CCCC(C)C)C(C)C)C(C)C)C(C)C)[C@@H](C)CC)[C@@H](C)OC(=O)[C@H](C(C)C)NC1=O [Compound 114, [Phe^12]-KF] ({Hexanoyl(5-Me)}-[dV]FV[dV][dP][Orn][d(aIle)][d(aThr)][d(aIle)][dV]F[Dhb]V; ester 8-C)	PANC-1	µM	6.56
